- Experimental system: KRAS (aa 1-169) G12C, C51S, C80L, C118S (Homo sapiens (Human), UniProt P01116, C118S/C51S/C80L/G12C)
- Sequence (P01116 other isoform, or with tags, fused parts or gaps G12C/C51S/C80L/C118S): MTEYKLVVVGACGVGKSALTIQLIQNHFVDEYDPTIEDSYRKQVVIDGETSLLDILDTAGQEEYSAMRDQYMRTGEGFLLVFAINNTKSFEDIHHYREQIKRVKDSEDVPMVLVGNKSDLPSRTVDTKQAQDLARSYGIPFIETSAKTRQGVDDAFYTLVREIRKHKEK
- Assay details: Biochemical functional assay: SOS1-mediated nucleotide exchange of GDP-loaded KRAS G12C, binding to GST-cRaf RBD, FRET readout
- Assay context: 3 hrs pre-incubation with compound at 24° C., SOS1, GTPyS, bound in uM
Endpoint: IC50

Request: Tell me measured IC50 for C=CC(=O)N1CCN(c2nc(N3CC(N(C)C)C3)nc3cc(-c4ccccc4Cl)c4c(c23)OCCC4)CC1 please.
Result: > 10 µM

Request: Given C=CC(=O)N1CCN(c2ncnc3cc(-c4ccc(O)c(F)c4)c4c(c23)OCCC4)C[C@@H]1CC#N , respond with its IC50.
Result: > 10 µM

Request: Specify measured IC50 for C=CC(=O)N1CCN(c2nc(OC[C@@H]3C[C@@H](F)CN3C)nc3cc(-c4cccc(F)c4F)c4c(c23)OCCC4)CC1 .
Result: > 10 µM

Request: Give the reported IC50 for this molecule. C=CC(=O)N1CCN(c2ncnc3cc(-c4ccc(O)c(Cl)c4)c4c(c23)OCCC4)C[C@@H]1CC#N
Result: > 10 µM

Request: // fetch IC50 given entry C=CC(=O)N1CCN(c2nc(N3CC(N(C)C)C3)nc3cc(-c4ccccc4C#N)c4c(c23)OCCC4)CC1
Result: > 10 µM

Request: Output IC50 of C=CC(=O)N1CCN(c2nc(N3CCN(C)CC3)nc3cc(-c4cccc5cccc(Cl)c45)c4c(c23)OCCC4)CC1
Result: > 10 µM

Request: Answer with the recorded IC50 of C=CC(=O)N1CCN(c2nc(N3CC(N(C)C)C3)nc3cc(-c4ccccc4F)c4c(c23)OCCC4)CC1 only.
Result: > 10 µM

Request: For the molecule C=CC(=O)N1CCN(c2nc(N3CC(N(C)C)C3)nc3cc(-c4ccccc4C)c4c(c23)OCCC4)CC1 , give its reported IC50.
Result: > 10 µM

Request: Return value of IC50 for input C=CC(=O)N1CCN(c2nc(N3CC(N(C)C)C3)nc3cc(-c4cccc(Cl)c4)c4c(c23)OCCC4)CC1 , no commentary.
Result: > 10 µM

###

- Experimental system: KRAS (aa 1-169) G12C, C51S, C80L, C118S (Homo sapiens (Human), UniProt P01116, C118S/C51S/C80L/G12C)
- Assay details: Biochemical functional assay: SOS1-mediated nucleotide exchange of GDP-loaded KRAS G12C, binding to GST-cRaf RBD, FRET readout
- Assay context: 3 hrs pre-incubation with compound at 24° C., SOS1, GTPyS, inhibition of nucleotide exchange
Criterion: IC50 strictly less than 0.1 µM. Met: true. Not met: false.

Request: Is it true that IC50 reported for C=CC(=O)N1CCN(c2nc(OC[C@@H]3CCCN3C)nc3cc(-c4cccc5cccc(Cl)c45)c4ccoc4c23)[C@@H](C)C1 is less than 0.1 µM?
Result: false

Request: Field: below-cutoff. Rule: recorded IC50 strictly less than 0.1 µM. Subject: C=C(F)C(=O)N1CCN(c2nc(OC(C)CN(C)C)nc3cc(-c4cccc5cccc(Cl)c45)c4c(c23)OCCC4)C[C@@H]1CC#N (stereo partly drawn)
Result: true

Request: IC50 strictly < 0.1 µM for this compound? C=C(F)C(=O)N1CCN(c2nc(OC[C@@H]3CCCN3C)nc3cc(-c4ccccc4C(F)(F)F)c4c(c23)OCCC4)C[C@@H]1CC#N
Result: true

Request: Is IC50 strictly under 0.1 µM for the entry C=CC(=O)N1CC2(CCN(c3nc(OC[C@@H]4CCCN4C)nc4cc(-c5cccc6cccc(Cl)c56)c5ccoc5c34)CC2)C1 ?
Result: false

Request: Hi there! Is IC50 for C=CC(=O)N1CCN(c2ncnc3cc(-c4ccc(O)c5ccccc45)c4c(c23)OCCC4)C[C@@H]1CC#N below 0.1 µM, do you know?
Result: true

Request: Dear reviewer, please state whether C=C(F)C(=O)N1CCN(c2nc(N3CC(COC)(N(C)C)C3)nc3cc(-c4cccc5cccc(Cl)c45)c4c(c23)OCCC4)C[C@@H]1CC#N has IC50 strictly beneath 0.1 µM.
Result: true
